System: 697 cells (Human T-cell leukemia, ALL)
ASSAY_SUMMARY: Cell growth inhibition assay, FTS alone (direct cell count)
Type: cell-based
SETTINGS: Homo sapiens, T-cell
pIC50: −log10 of the molar value.

SMILES_STRUCTURE: CC(C)=CCC/C(C)=C/CC/C(C)=C/CSc1ccccc1C(=O)O
pIC50: 4.60

----------
Tested on: K562 cells (Human, CML)
ASSAY_SUMMARY: Cell growth inhibition assay, FTS alone (direct cell count)
Format: cell-based
SETTINGS: Homo sapiens, read-out: IC50 for FTS inhibition of leukemia cell growth
pIC50: −log10 of the molar value.

COMPOUND: CC(C)=CCC/C(C)=C/CC/C(C)=C/CSc1ccccc1C(=O)O [FTS, farnesylthiosalicylic acid]
pIC50: 4.30
